# testSystem: acetylcholine muscarinic M1 receptor (Homo sapiens)
# Construct: also called CHOK1/hM1)
# Sequence (P11229 1-460): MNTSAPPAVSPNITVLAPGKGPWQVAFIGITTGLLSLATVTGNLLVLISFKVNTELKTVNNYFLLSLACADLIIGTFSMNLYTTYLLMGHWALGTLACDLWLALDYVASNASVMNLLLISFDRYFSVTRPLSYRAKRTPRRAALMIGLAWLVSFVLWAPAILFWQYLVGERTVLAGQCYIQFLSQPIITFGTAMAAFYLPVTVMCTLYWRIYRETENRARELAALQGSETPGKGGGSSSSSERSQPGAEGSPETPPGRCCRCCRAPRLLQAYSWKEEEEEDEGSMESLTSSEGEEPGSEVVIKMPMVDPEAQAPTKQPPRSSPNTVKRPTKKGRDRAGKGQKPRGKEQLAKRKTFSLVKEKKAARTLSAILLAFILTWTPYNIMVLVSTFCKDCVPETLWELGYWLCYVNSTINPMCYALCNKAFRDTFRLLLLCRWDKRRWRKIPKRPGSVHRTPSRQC
# assayExplanation: Muscarinic FLIPR intracellular calcium assay for M1 positive allosteric modulator activity in CHOnfat/hM1 cells
# measurementConditions: 4 min preincubation, then EC20 acetylcholine (3 nM final), calculated from FLIPR values, read-out: IP Value (inflection point)
metricName: EC50 (µM)
Kindly provide the numeric value in µM only, without the unit symbol.

                                   compound  metricname  unittag  result
0  C[C@@H]1CCOC[C@@H]1n1nc2c3ccccc3n(Cc3ccc(-n4cccn4)cc3)nc-2c1=O (single isomer, unassigned) [Example 75]        EC50       µM   0.158

// EC50 value for O=c1c2nn(Cc3ccc(-n4cccn4)cc3)c3c(Cl)cccc3c-2nn1[C@H]1CCOC[C@@H]1O (single isomer, unassigned) [Example 62] : 0.021

Form field EC50, entry `Cc1nc(F)ccc1-n1nc2c3ccccc3n(Cc3ccc(-c4cnn(C)c4)nc3)nc-2c1=O` : 0.225

Value of measured EC50 for the entry O=c1c2nn(Cc3ccc(-n4cccn4)cc3)c3ccccc3c-2nn1CC(O)CO (stereo not shown) : 0.193

====

# testSystem: acetylcholine muscarinic M1 receptor (Homo sapiens)
# Construct: also called CHOK1/hM1)
# assayExplanation: Muscarinic FLIPR intracellular calcium assay for M1 positive allosteric modulator activity in CHOnfat/hM1 cells
# measurementConditions: 4 min preincubation, then EC20 acetylcholine (3 nM final), calculated from FLIPR values, read-out: IP Value (inflection point)
Recorded log10 of EC50 by entry
Please be aware that the numbers have been log10-transformed from EC50 in µM.

>>> df
                                   compound                                testsystem  result
0  C[C@@H]1CCOC[C@@H]1n1nc2c3ccccc3n(Cc3ccc(-n4cccn4)cc3)nc-2c1=O (single isomer, unassigned) [Example 73]  acetylcholine muscarinic M1 receptor (Homo sapiens)   -0.11
1  C[C@H]1CCOC[C@@H]1n1nc2c3ccccc3n(Cc3ccc(-n4cccn4)cc3)nc-2c1=O (single isomer, unassigned) [Example 72]  acetylcholine muscarinic M1 receptor (Homo sapiens)   -1.33

// log10 of EC50 lookup, compound = N#Cc1cccc(F)c1-n1nc2c3ccccc3n(Cc3ccc(-n4cccn4)cc3)nc-2c1=O [Example 13] , result: -1.85

Notebook: CC1CCOCC1n1nc2c3ccccc3n(Cc3ccc(-n4cccn4)cc3)nc-2c1=O (racemic) [Example 71] , log10 of EC50 read as -1.05

O=c1c2nn(Cc3ccc(-n4cccn4)cc3)c3c(Cl)cccc3c-2nn1[C@H]1CCOC[C@@H]1O (single isomer, unassigned) [Example 63] yielded log10 of EC50 of -0.23

Per the records, this compound ( Cc1ccccc1-n1nc2c3ccccc3n(Cc3ccc(-n4ccnc4)nc3)nc-2c1=O [Example 23] ) has log10 of EC50 equal to -0.13

// field: log10 of EC50; key: Cc1ccccc1-n1nc2c3ccccc3n(Cc3ccc(Br)cn3)nc-2c1=O [Example 21] ; value = 0.46
